biological target: Nav1.7 (or SCN9A) channel (Homo sapiens); construct: expressed in transfected cells; assay: Nav1.7 PatchXpress automated whole-cell electrophysiology in HEK cells expressing hSCN9A; format: cell-based; details: estimated IC50 from single point data, PatchXpress assay, held at V1/2 of inactivation, read-out: Nav1.7 EIC50
Sequence (Q15858 whole entry): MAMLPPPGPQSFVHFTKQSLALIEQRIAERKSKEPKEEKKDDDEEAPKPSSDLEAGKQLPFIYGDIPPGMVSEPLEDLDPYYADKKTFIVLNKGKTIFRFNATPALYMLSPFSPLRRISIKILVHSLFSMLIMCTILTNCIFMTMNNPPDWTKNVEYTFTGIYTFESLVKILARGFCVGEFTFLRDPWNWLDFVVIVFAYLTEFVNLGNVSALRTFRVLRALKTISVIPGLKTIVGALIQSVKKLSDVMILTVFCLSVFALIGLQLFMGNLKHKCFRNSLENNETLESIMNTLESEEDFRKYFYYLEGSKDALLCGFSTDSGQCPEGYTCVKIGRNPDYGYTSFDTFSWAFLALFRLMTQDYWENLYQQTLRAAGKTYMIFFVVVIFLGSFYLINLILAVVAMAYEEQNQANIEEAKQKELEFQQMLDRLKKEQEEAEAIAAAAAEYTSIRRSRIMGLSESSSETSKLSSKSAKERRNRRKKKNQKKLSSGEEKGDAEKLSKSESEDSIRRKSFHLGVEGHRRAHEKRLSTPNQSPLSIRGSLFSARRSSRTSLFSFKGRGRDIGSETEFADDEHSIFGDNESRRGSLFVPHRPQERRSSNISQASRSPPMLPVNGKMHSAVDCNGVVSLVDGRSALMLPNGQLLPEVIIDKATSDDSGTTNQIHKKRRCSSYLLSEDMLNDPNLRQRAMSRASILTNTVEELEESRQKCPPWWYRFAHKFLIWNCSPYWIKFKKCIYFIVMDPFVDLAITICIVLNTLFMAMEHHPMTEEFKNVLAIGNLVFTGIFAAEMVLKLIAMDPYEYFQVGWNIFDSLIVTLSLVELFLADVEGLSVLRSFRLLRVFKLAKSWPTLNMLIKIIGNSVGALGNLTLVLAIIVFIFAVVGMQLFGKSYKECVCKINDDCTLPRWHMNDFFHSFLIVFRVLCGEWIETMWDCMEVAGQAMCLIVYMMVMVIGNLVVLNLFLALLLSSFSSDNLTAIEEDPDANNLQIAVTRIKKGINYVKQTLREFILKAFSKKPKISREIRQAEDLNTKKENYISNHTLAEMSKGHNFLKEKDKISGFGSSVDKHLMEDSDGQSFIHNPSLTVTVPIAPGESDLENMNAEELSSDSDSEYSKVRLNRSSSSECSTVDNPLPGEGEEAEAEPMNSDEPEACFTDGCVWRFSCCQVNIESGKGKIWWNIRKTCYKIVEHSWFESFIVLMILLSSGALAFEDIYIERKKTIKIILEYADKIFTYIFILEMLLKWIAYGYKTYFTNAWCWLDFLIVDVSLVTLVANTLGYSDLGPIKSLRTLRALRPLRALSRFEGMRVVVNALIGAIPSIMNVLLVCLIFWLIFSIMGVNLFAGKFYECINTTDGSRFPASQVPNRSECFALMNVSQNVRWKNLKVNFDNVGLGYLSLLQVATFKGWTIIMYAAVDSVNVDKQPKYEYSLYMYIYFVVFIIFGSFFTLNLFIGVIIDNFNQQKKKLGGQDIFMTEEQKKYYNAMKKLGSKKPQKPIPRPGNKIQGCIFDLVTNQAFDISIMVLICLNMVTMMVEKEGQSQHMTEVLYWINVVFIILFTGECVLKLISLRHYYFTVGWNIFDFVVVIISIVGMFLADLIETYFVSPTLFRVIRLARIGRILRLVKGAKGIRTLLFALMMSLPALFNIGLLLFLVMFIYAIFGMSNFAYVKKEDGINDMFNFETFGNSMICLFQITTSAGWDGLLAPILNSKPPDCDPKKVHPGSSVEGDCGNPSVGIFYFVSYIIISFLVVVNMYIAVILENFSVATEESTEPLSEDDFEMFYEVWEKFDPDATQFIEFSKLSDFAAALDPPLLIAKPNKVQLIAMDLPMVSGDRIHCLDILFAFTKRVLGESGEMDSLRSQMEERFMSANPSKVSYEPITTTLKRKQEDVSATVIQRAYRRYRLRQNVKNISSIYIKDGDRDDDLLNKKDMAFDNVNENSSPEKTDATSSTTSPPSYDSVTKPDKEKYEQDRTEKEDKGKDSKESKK
pIC50: −log10 of the molar value.
Measured pIC50 accompanies every entry in the list below.
measuredProperty: pIC50

• Cc1n[nH]c(C)c1-c1cc(C(=O)NS(C)(=O)=O)ccc1Oc1ccc(Cl)cc1 = < 5.52
• CS(=O)(=O)NC(=O)c1ccc(Oc2ccc(Cl)cc2)c(-c2cnc(N)nc2)c1 = < 5.52
• COc1ncccc1-c1cc(C(=O)NS(C)(=O)=O)ccc1Oc1ccccc1C(F)(F)F = < 6.00
